Reference source: patent US9403811B2

Assay: Solubility test
Format: physicochemical
Conditions: 0.50 g solid added to ethyl acetate at room temperature; shaking 30 seconds every 5 minutes; observed with eyes
endpoint: Solubility: Ethyl acetate (volume of solvent in which the solid dissolved) (mL)
Give the value, in units of mL, as a plain number.

Worked set:
[
  {
    "molecule": "CCOc1nc2cccc(C(=O)OCc3oc(=O)oc3C)c2n1Cc1ccc(-c2ccccc2-c2noc(=O)[n-]2)cc1.[K+] [Form L, azilsartan medoxomil potassium]",
    "quantitative.result": 14
  },
  {
    "molecule": "CCOc1nc2cccc(C(=O)OCc3oc(=O)oc3C)c2n1Cc1ccc(-c2ccccc2-c2noc(=O)[n-]2)cc1.[K+] [Form D, azilsartan medoxomil potassium]",
    "quantitative.result": 12
  },
  {
    "molecule": "CCOc1nc2cccc(C(=O)OCc3oc(=O)oc3C)c2n1Cc1ccc(-c2ccccc2-c2noc(=O)[n-]2)cc1.[K+] [Form H, azilsartan medoxomil potassium]",
    "quantitative.result": 13
  },
  {
    "molecule": "CCOc1nc2cccc(C(=O)OCc3oc(=O)oc3C)c2n1Cc1ccc(-c2ccccc2-c2noc(=O)[n-]2)cc1.[K+] [Form C, azilsartan medoxomil potassium]",
    "quantitative.result": 10
  },
  {
    "molecule": "CCOc1nc2cccc(C(=O)OCc3oc(=O)oc3C)c2n1Cc1ccc(-c2ccccc2-c2noc(=O)[n-]2)cc1.[K+] [Form F, azilsartan medoxomil potassium]",
    "quantitative.result": 16
  }
]

Note: attention shifts to another entry.
Q: Answer with the recorded Solubility: Ethyl acetate (volume of solvent in which the solid dissolved) of CCOc1nc2cccc(C(=O)OCc3oc(=O)oc3C)c2n1Cc1ccc(-c2ccccc2-c2noc(=O)[n-]2)cc1.[K+] [Form J, azilsartan medoxomil potassium] only.
A: 11

====

Listed next: entries and their corresponding Solubility: THF (volume of solvent in which the solid dissolved).
Experiment: Solubility test
Assay type: physicochemical
Settings: 0.50 g solid added to THF at room temperature; shaking 30 seconds every 5 minutes; observed with eyes
Give the value, in units of mL, as a plain number.

Worked set:
[
  {
    "molecule": "CCOc1nc2cccc(C(=O)OCc3oc(=O)oc3C)c2n1Cc1ccc(-c2ccccc2-c2noc(=O)[n-]2)cc1.[K+] [Form H, azilsartan medoxomil potassium]",
    "quantitative.result": 14
  },
  {
    "molecule": "CCOc1nc2cccc(C(=O)OCc3oc(=O)oc3C)c2n1Cc1ccc(-c2ccccc2-c2noc(=O)[n-]2)cc1.[K+] [Form J, azilsartan medoxomil potassium]",
    "quantitative.result": 12
  }
]

Q: Answer with the recorded Solubility: THF (volume of solvent in which the solid dissolved) of CCOc1nc2cccc(C(=O)OCc3oc(=O)oc3C)c2n1Cc1ccc(-c2ccccc2-c2noc(=O)[n-]2)cc1.[K+] [Form C, azilsartan medoxomil potassium] only.
A: 13

====

Listed next: entries and their corresponding Solubility: Methanol (volume of solvent in which the solid dissolved).
Assay: Solubility test
Format: physicochemical
Conditions: 0.50 g solid added to methanol at room temperature; shaking 30 seconds every 5 minutes; observed with eyes
Give the value, in units of mL, as a plain number.

Worked set:
[
  {
    "molecule": "CCOc1nc2cccc(C(=O)OCc3oc(=O)oc3C)c2n1Cc1ccc(-c2ccccc2-c2noc(=O)[n-]2)cc1.[K+] [Form L, azilsartan medoxomil potassium]",
    "quantitative.result": 5
  },
  {
    "molecule": "CCOc1nc2cccc(C(=O)OCc3oc(=O)oc3C)c2n1Cc1ccc(-c2ccccc2-c2noc(=O)[n-]2)cc1.[K+] [Form J, azilsartan medoxomil potassium]",
    "quantitative.result": 4
  },
  {
    "molecule": "CCOc1nc2cccc(C(=O)OCc3oc(=O)oc3C)c2n1Cc1ccc(-c2ccccc2-c2noc(=O)[n-]2)cc1.[K+] [Form H, azilsartan medoxomil potassium]",
    "quantitative.result": 6
  },
  {
    "molecule": "CCOc1nc2cccc(C(=O)OCc3oc(=O)oc3C)c2n1Cc1ccc(-c2ccccc2-c2noc(=O)[n-]2)cc1.[K+] [Form C, azilsartan medoxomil potassium]",
    "quantitative.result": 5
  }
]

Q: Answer with the recorded Solubility: Methanol (volume of solvent in which the solid dissolved) of CCOc1nc2cccc(C(=O)OCc3oc(=O)oc3C)c2n1Cc1ccc(-c2ccccc2-c2noc(=O)[n-]2)cc1.[K+] [Form D, azilsartan medoxomil potassium] only.
A: 4

====

Test: Solubility test
Type: physicochemical
Details: 0.50 g solid added to ethanol at room temperature; shaking 30 seconds every 5 minutes; observed with eyes
Listed next: entries and their corresponding Solubility: Ethanol (volume of solvent in which the solid dissolved).
Give the value, in units of mL, as a plain number.

Worked set:
[
  {
    "compound": "CCOc1nc2cccc(C(=O)OCc3oc(=O)oc3C)c2n1Cc1ccc(-c2ccccc2-c2noc(=O)[n-]2)cc1.[K+] [Form H, azilsartan medoxomil potassium]",
    "quantitative.result": 8
  },
  {
    "compound": "CCOc1nc2cccc(C(=O)OCc3oc(=O)oc3C)c2n1Cc1ccc(-c2ccccc2-c2noc(=O)[n-]2)cc1.[K+] [Form L, azilsartan medoxomil potassium]",
    "quantitative.result": 6
  },
  {
    "compound": "CCOc1nc2cccc(C(=O)OCc3oc(=O)oc3C)c2n1Cc1ccc(-c2ccccc2-c2noc(=O)[n-]2)cc1.[K+] [Form F, azilsartan medoxomil potassium]",
    "quantitative.result": 6
  },
  {
    "compound": "CCOc1nc2cccc(C(=O)OCc3oc(=O)oc3C)c2n1Cc1ccc(-c2ccccc2-c2noc(=O)[n-]2)cc1.[K+] [Form D, azilsartan medoxomil potassium]",
    "quantitative.result": 5
  }
]

Note: attention shifts to another entry.
Q: Answer with the recorded Solubility: Ethanol (volume of solvent in which the solid dissolved) of CCOc1nc2cccc(C(=O)OCc3oc(=O)oc3C)c2n1Cc1ccc(-c2ccccc2-c2noc(=O)[n-]2)cc1.[K+] [Form C, azilsartan medoxomil potassium] only.
A: 6

====

Test: Solubility test
Assay type: physicochemical
Conditions: 0.50 g solid added to acetone at room temperature; shaking 30 seconds every 5 minutes; observed with eyes
endpoint: Solubility: Acetone (volume of solvent in which the solid dissolved) (mL)
Give the value, in units of mL, as a plain number.

Worked set:
[
  {
    "molecule": "CCOc1nc2cccc(C(=O)OCc3oc(=O)oc3C)c2n1Cc1ccc(-c2ccccc2-c2noc(=O)[n-]2)cc1.[K+] [Form H, azilsartan medoxomil potassium]",
    "readout.unit": "mL",
    "quantitative.result": 10
  },
  {
    "molecule": "CCOc1nc2cccc(C(=O)OCc3oc(=O)oc3C)c2n1Cc1ccc(-c2ccccc2-c2noc(=O)[n-]2)cc1.[K+] [Form D, azilsartan medoxomil potassium]",
    "readout.unit": "mL",
    "quantitative.result": 9
  },
  {
    "molecule": "CCOc1nc2cccc(C(=O)OCc3oc(=O)oc3C)c2n1Cc1ccc(-c2ccccc2-c2noc(=O)[n-]2)cc1.[K+] [Form J, azilsartan medoxomil potassium]",
    "readout.unit": "mL",
    "quantitative.result": 8
  },
  {
    "molecule": "CCOc1nc2cccc(C(=O)OCc3oc(=O)oc3C)c2n1Cc1ccc(-c2ccccc2-c2noc(=O)[n-]2)cc1.[K+] [Form L, azilsartan medoxomil potassium]",
    "readout.unit": "mL",
    "quantitative.result": 11
  },
  {
    "molecule": "CCOc1nc2cccc(C(=O)OCc3oc(=O)oc3C)c2n1Cc1ccc(-c2ccccc2-c2noc(=O)[n-]2)cc1.[K+] [Form F, azilsartan medoxomil potassium]",
    "readout.unit": "mL",
    "quantitative.result": 12
  }
]

Note: attention shifts to another entry.
Q: Answer with the recorded Solubility: Acetone (volume of solvent in which the solid dissolved) of CCOc1nc2cccc(C(=O)OCc3oc(=O)oc3C)c2n1Cc1ccc(-c2ccccc2-c2noc(=O)[n-]2)cc1.[K+] [Form C, azilsartan medoxomil potassium] only.
A: 8

====

Assay: Solubility test
Format: physicochemical
Conditions: 0.50 g solid added to THF at room temperature; shaking 30 seconds every 5 minutes; observed with eyes
Experimental: The crystalline form C, D, F, H, J and L of azilsartan medoxomil potassium (0.50 g) was added to the solvent at room temperature. […] The solid was deemed as dissolved when no solid was detected in the mixture by human eyes. The solubility data of crystalline forms C, D, F, H, J and L of azilsartan medoxomil potassium are as shown below.
Listed next: entries and their corresponding Solubility: THF (volume of solvent in which the solid dissolved).
Give the value, in units of mL, as a plain number.

[
  {
    "molecule": "CCOc1nc2cccc(C(=O)OCc3oc(=O)oc3C)c2n1Cc1ccc(-c2ccccc2-c2noc(=O)[n-]2)cc1.[K+] [Form F, azilsartan medoxomil potassium]",
    "quantitative.result": 15
  }
]

Note: attention shifts to another entry.
Q: Answer with the recorded Solubility: THF (volume of solvent in which the solid dissolved) of CCOc1nc2cccc(C(=O)OCc3oc(=O)oc3C)c2n1Cc1ccc(-c2ccccc2-c2noc(=O)[n-]2)cc1.[K+] [Form L, azilsartan medoxomil potassium] only.
A: 17
